Would you mind telling me the reported AUC(0-t) of each entry?
Assay: Plasma kinetics in rat following intravenous and oral administration
Type: in vivo, Sprague Dawley rats
Conditions: male, Sprague Dawley, rat, plasma, iv, 10 mg/kg, intravenous 10 mg/kg, male rats, individual animals; read-out: AUC0-t
Numbers only, in ng·h/mL.

• N=C(N)NN=CC=Cc1cccn1-c1ccccc1Br [Compound 3, acetate] = 3080

Could you tell me AUC(0-t) for each of these molecules? They are listed below.
1. N=C(N)NN=CC=Cc1cccn1-c1ccccc1[N+](=O)[O-] [Compound 2, acetate]
2. N=C(N)NN=CC=Cc1cccn1-c1ccc(Cl)cc1 [Compound 1, acetate]

1500
3870

====

Test: Plasma kinetics in rat following intravenous and oral administration
Assay type: in vivo, Sprague Dawley rats
Conditions: male, Sprague Dawley, rat, plasma, po, 10 mg/kg, oral 10 mg/kg, male rats, individual animals; read-out: AUC0-t
metric: AUC(0-t) (ng·h/mL)
One number for each entry, in ng·h/mL.

Guide cases for AUC(0-t), answers given:
* N=C(N)NN=CC=Cc1cccn1-c1ccc(Cl)cc1 [Compound 1, acetate] | 1500
* N=C(N)NN=CC=Cc1cccn1-c1ccccc1[N+](=O)[O-] [Compound 2, acetate] | 85.6

Turning now to a further molecule:
Can you look up the measured AUC(0-t) of N=C(N)NN=CC=Cc1cccn1-c1ccccc1Br [Compound 3, acetate] for me?
605

====

Assay: Plasma kinetics in rat following intravenous and oral administration
Assay type: in vivo, Sprague Dawley rats
Details: Table XIV; intravenous 10 mg/kg, male rats, Median
metric: t1/2

Can you look up the measured t1/2 of N=C(N)NN=CC=Cc1cccn1-c1ccccc1Br [Compound 3, acetate] for me?
3.26 h

====

Experiment: Plasma kinetics in rat following intravenous and oral administration
Format: in vivo, Sprague Dawley rats
Conditions: male, Sprague Dawley, rat, plasma, po, 10 mg/kg, oral 10 mg/kg, male rats, Geometric mean; read-out: AUC0-t
Would you mind telling me the reported AUC(0-t) of each entry?
The reply should read as a number followed by its unit.

Guide cases for AUC(0-t), answers given:
• N=C(N)NN=CC=Cc1cccn1-c1ccccc1Br [Compound 3, acetate] = 509 ng·h/mL
• N=C(N)NN=CC=Cc1cccn1-c1ccccc1[N+](=O)[O-] [Compound 2, acetate] = 66.1 ng·h/mL

Turning now to a further compound:
Can you look up the measured AUC(0-t) of N=C(N)NN=CC=Cc1cccn1-c1ccc(Cl)cc1 [Compound 1, acetate] for me?
1340 ng·h/mL

====

Test: Plasma kinetics in rat following intravenous and oral administration
Type: in vivo, Sprague Dawley rats
Settings: male, Sprague Dawley, rat, plasma, po, 10 mg/kg, single oral 10 mg/kg, male rats, 0.75 h, mean of 3; read-out: Mean Concentration in plasma
metric: concentration at 0.75 h (ng/mL)
Numbers only, in ng/mL.

Guide cases for concentration at 0.75 h, answers given:
- N=C(N)NN=CC=Cc1cccn1-c1ccc(Cl)cc1 [Compound 1, acetate]: 17.3
- N=C(N)NN=CC=Cc1cccn1-c1ccccc1Br [Compound 3, acetate]: 30.8

Turning now to a further molecule:
Can you look up the measured concentration at 0.75 h of N=C(N)NN=CC=Cc1cccn1-c1ccccc1[N+](=O)[O-] [Compound 2, acetate] for me?
13.9

====

Would you mind telling me the reported concentration at 0.25 h of each entry?
Assay: Plasma kinetics in rat following intravenous and oral administration
Format: in vivo, Sprague Dawley rats
Details: male, Sprague Dawley, rat, plasma, po, 10 mg/kg, single oral 10 mg/kg, male rats, 0.25 h, mean of 3; read-out: Mean Concentration in plasma
Experimental: This study determined the intravenous pharmacokinetics and oral bioavailability of compound 1 of the invention (see FIG. 1A, structure no. 1), compound 2 of the invention (see FIG. 1D, structure no. 19) and compound 3 of the invention (see FIG. 1I, structure no. 53) following administration to Sprague Dawley rats at a dose level of 10 mg/kg. […]
Numbers only, in ng/mL.

• N=C(N)NN=CC=Cc1cccn1-c1ccccc1Br [Compound 3, acetate] = 20.5

Could you tell me concentration at 0.25 h for each of these compounds? They are listed below.
1. N=C(N)NN=CC=Cc1cccn1-c1ccc(Cl)cc1 [Compound 1, acetate]
2. N=C(N)NN=CC=Cc1cccn1-c1ccccc1[N+](=O)[O-] [Compound 2, acetate]

1. 7.29
2. 25.5

====

Test: Plasma kinetics in rat following intravenous and oral administration
Assay type: in vivo, Sprague Dawley rats
Conditions: male, Sprague Dawley, rat, plasma, po, 10 mg/kg, oral 10 mg/kg, male rats, Geometric mean; read-out: Cmax
Would you mind telling me the reported Cmax of each entry?
Give bare numbers, in ng/mL.

Guide cases for Cmax, answers given:
- N=C(N)NN=CC=Cc1cccn1-c1ccccc1Br [Compound 3, acetate]: 108
- N=C(N)NN=CC=Cc1cccn1-c1ccc(Cl)cc1 [Compound 1, acetate]: 104

Can you look up the measured Cmax of N=C(N)NN=CC=Cc1cccn1-c1ccccc1[N+](=O)[O-] [Compound 2, acetate] for me?
26.3

====

Assay: Plasma kinetics in rat following intravenous and oral administration
Type: in vivo, Sprague Dawley rats
Conditions: male, Sprague Dawley, rat, plasma, po, 10 mg/kg, oral 10 mg/kg, male rats, Median
metric: AUC(0-inf) (µg·h/mL)
Numbers only, in µg·h/mL.

Can you look up the measured AUC(0-inf) of N=C(N)NN=CC=Cc1cccn1-c1ccccc1Br [Compound 3, acetate] for me?
0.838

====

Would you mind telling me the reported concentration at 1.5 h of each entry?
Assay: Plasma kinetics in rat following intravenous and oral administration
Assay type: in vivo, Sprague Dawley rats
Conditions: male, Sprague Dawley, rat, plasma, iv, 10 mg/kg, single intravenous 10 mg/kg, male rats, 1.5 h, individual animals; read-out: Sample Concentration in plasma
Procedure: This study determined the intravenous pharmacokinetics and oral bioavailability of compound 1 of the invention (see FIG. 1A, structure no. 1), compound 2 of the invention (see FIG. 1D, structure no. 19) and compound 3 of the invention (see FIG. 1I, structure no. 53) following administration to Sprague Dawley rats at a dose level of 10 mg/kg. […]
The reply should read as a number followed by its unit.

* N=C(N)NN=CC=Cc1cccn1-c1ccccc1Br [Compound 3, acetate] | 274 ng/mL
* N=C(N)NN=CC=Cc1cccn1-c1ccc(Cl)cc1 [Compound 1, acetate] | 347 ng/mL

Turning now to a further molecule:
Can you look up the measured concentration at 1.5 h of N=C(N)NN=CC=Cc1cccn1-c1ccccc1[N+](=O)[O-] [Compound 2, acetate] for me?
250 ng/mL

====

Test: Plasma kinetics in rat following intravenous and oral administration
Type: in vivo, Sprague Dawley rats
Settings: male, Sprague Dawley, rat, plasma, iv, 10 mg/kg, intravenous 10 mg/kg, male rats, Median
metric: AUC(0-inf) (ng·h/mL)
Numbers only, in ng·h/mL.

Guide cases for AUC(0-inf), answers given:
• N=C(N)NN=CC=Cc1cccn1-c1ccccc1Br [Compound 3, acetate] = 2500
• N=C(N)NN=CC=Cc1cccn1-c1ccc(Cl)cc1 [Compound 1, acetate] = 3760

Turning now to a further compound:
Can you look up the measured AUC(0-inf) of N=C(N)NN=CC=Cc1cccn1-c1ccccc1[N+](=O)[O-] [Compound 2, acetate] for me?
1870

====

Assay: Plasma kinetics in rat following intravenous and oral administration
Assay type: in vivo, Sprague Dawley rats
Conditions: male, Sprague Dawley, rat, plasma, iv, 10 mg/kg, single intravenous 10 mg/kg, male rats, 0.25 h, individual animals; read-out: Sample Concentration in plasma
Would you mind telling me the reported concentration at 0.25 h of each entry?
One number for each entry, in ng/mL.

• N=C(N)NN=CC=Cc1cccn1-c1ccc(Cl)cc1 [Compound 1, acetate] = 589
• N=C(N)NN=CC=Cc1cccn1-c1ccccc1Br [Compound 3, acetate] = 481

Turning now to a further compound:
Can you look up the measured concentration at 0.25 h of N=C(N)NN=CC=Cc1cccn1-c1ccccc1[N+](=O)[O-] [Compound 2, acetate] for me?
847

====

Target: human MC3 receptor (Homo sapiens)
Sequence (P41968 whole entry): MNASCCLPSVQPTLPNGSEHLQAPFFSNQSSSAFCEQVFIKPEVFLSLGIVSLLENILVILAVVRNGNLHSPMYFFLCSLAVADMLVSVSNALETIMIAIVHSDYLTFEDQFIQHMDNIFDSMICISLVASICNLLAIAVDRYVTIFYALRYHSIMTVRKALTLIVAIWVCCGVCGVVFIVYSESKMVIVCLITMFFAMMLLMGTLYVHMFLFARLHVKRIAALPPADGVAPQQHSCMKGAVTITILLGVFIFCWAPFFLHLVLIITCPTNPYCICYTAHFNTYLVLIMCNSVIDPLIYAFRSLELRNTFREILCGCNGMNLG
Test: [125I]-NDP-MSH radio-ligand binding, MC3 (h) receptor (recombinant CHO cells)
Conditions: 60 min/37° C.
metric: Ki

• N=C(N)NN=CC=Cc1cccn1-c1ccccc1[N+](=O)[O-] [Compound 2, acetate] = > 1000 nM

Could you tell me Ki for each of these compounds? They are listed below.
1. N=C(N)NN=Cc1cccn1-c1ccccc1[N+](=O)[O-] [Reference-compound 2, acetate, reference compound]
2. N=C(N)NN=CC=Cc1cccn1-c1ccccc1Br [Compound 3, acetate]
3. N=C(N)NN=Cc1cccn1-c1ccc(Cl)cc1 [Reference-compound 1, acetate, reference compound]
4. N=C(N)NN=CC=Cc1cccn1-c1ccc(Cl)cc1 [Compound 1, acetate]

1. > 1000 nM
2. 630 nM
3. > 1000 nM
4. > 1000 nM
